# Met Kinase % Inhibition listing for each entry below
system: human MET; assay: MET biochemical kinase assay; set-up: concentration or dose not given beside the values

Worked examples follow.
N#Cc1cccc(C=C2C(=O)Nc3c(Br)cc(Br)cc32)c1 [10727/A08] = 9.7%
CC(C)(C)c1cc(C=C2C(=O)Nc3c(Br)cc(Br)cc32)ccc1O [10721/A09] = 23.0%
Cc1c(Br)ccc2c1C(=Cc1ccc(N3CCOCC3)cc1)C(=O)N2 [10725/C08] = 28.0%
CC(C)(C)c1cc(C=C2C(=O)Nc3c(Br)cc(Br)cc32)ccc1OCc1ccccc1 [10732/A06] = 5.7%
CC(C)c1ccc2occ(C=C3C(=O)Nc4ccc(I)cc43)c(=O)c2c1 [10731/B05] = 86.0%
CCc1c(C)[nH]c(C=C2C(=O)Nc3ccc(S(=O)(=O)Nc4ccc(C(F)(F)F)cc4)cc32)c1C [10719/E05] = 39.0%
CCN(CC)c1ccc(C=C2C(=O)Nc3c(Br)cc(Br)cc32)cc1 [10727/A02] = 52.0%
CNS(=O)(=O)c1ccc2c(c1)C(=Cc1cc(C)c(OC)c(C)c1)C(=O)N2 [10733/D06] = −19.4%
CCCCN(CCCC)c1ccc(C=C2C(=O)Nc3ccc(CCCl)cc32)cc1 [10722/G10] = 27.0%
CC(C)(C)c1cc(C=C2C(=O)Nc3ccc(I)cc32)cc(C(C)(C)C)c1O [10721/B11] = 6.7%

Query CNS(=O)(=O)c1ccc2c(c1)C(=Cc1ccccc1O)C(=O)N2 [10720/D05] yields Met Kinase % Inhibition of 9.8%

Query O=C1Nc2ccc(I)cc2C1=CC(c1cccs1)C(F)(F)F (stereo not drawn) [10732/B02] yields Met Kinase % Inhibition of 78.0%

Query O=C1Nc2ccc(CCCl)cc2C1=Cc1ccc(F)cc1Cl [10719/G09] yields Met Kinase % Inhibition of 1.3%

Query CC(C)(C)c1cc(C=C2C(=O)Nc3ccc(CCCl)cc32)cc(Br)c1O [10721/G10] yields Met Kinase % Inhibition of 12.0%

Query CCc1ccc(C=C2C(=O)Nc3ccc(S(=O)(=O)Nc4ccc(C(F)(F)F)cc4)cc32)o1 [10724/E10] yields Met Kinase % Inhibition of 84.0%

Query O=C1Nc2ccc(CCCl)cc2C1=Cc1ccc(Cl)s1 [10721/G07] yields Met Kinase % Inhibition of 10.0%

Query CCc1ccc(C=C2C(=O)Nc3ccc(I)cc32)o1 [10724/B10] yields Met Kinase % Inhibition of 95.0%

Query O=C1Nc2ccc(CCCl)cc2C1=Cc1cccc(Oc2ccccc2)c1 [10729/G06] yields Met Kinase % Inhibition of 26.0%

Query CCOc1ccccc1C=C1C(=O)Nc2ccc(S(=O)(=O)Nc3ccc(C(F)(F)F)cc3)cc21 [10717/E02] yields Met Kinase % Inhibition of 24.0%

Query O=C1Nc2ccc(CCCl)cc2C1=Cc1ccc(F)cc1 [10717/G05] yields Met Kinase % Inhibition of 4.7%

Query Cc1ccsc1C=C1C(=O)Nc2ccc(I)cc21 [10729/B05] yields Met Kinase % Inhibition of 51.0%

Query CC(C)(C)c1cc(C=C2C(=O)Nc3ccc(S(=O)(=O)Nc4ccc(C(F)(F)F)cc4)cc32)ccc1OCc1ccccc1 [10732/E06] yields Met Kinase % Inhibition of −2.1%

Query Cc1c(Br)ccc2c1C(=Cc1cc(C(C)(C)C)c(O)c(C(C)(C)C)c1)C(=O)N2 [10721/C11] yields Met Kinase % Inhibition of 3.7%

Query Cc1c(Br)ccc2c1C(=Cc1ccc(O)cc1)C(=O)N2 [10719/C07] yields Met Kinase % Inhibition of 7.7%

Query O=C1Nc2ccc(CCCl)cc2C1=Cc1cc2c([nH]1)CCCC2 [10721/G05] yields Met Kinase % Inhibition of 8.6%

Query CNS(=O)(=O)c1ccc2c(c1)C(=Cc1cc(C(C)(C)C)cc(C(C)(C)C)c1O)C(=O)N2 [10723/D11] yields Met Kinase % Inhibition of 42.0%

Query CCOc1cccc(C=C2C(=O)Nc3ccc(S(=O)(=O)N4CCOCC4)cc32)c1O [10734/F02] yields Met Kinase % Inhibition of 55.0%

Query COc1cc(OC)c(C=C2C(=O)Nc3ccc(S(=O)(=O)Nc4ccc(C(F)(F)F)cc4)cc32)c(OC)c1 [10719/E06] yields Met Kinase % Inhibition of −4.5%

Query O=C1Nc2ccc(CCCl)cc2C1=Cc1ccc(C(=O)O)cc1 [10722/G05] yields Met Kinase % Inhibition of 9.7%
